Test: APP 5'UTR translational reporter suppression – APP 5'UTR luciferase, SH-SY5Y cells, primary screen (AID 1285)
Conditions: SH-SY5Y APP 5'UTR-luciferase reporter, luminescence; at 2 µM; active compounds read high
Among all 190,000 compounds or so, about 1,600 (0.84%) were called active. Shown is part of a subset that was picked to be rich in actives.
Please mark Condition met if the recorded inhibition is equal to or greater than 60%, and Condition not met if it falls below.

STRUCTURE_SMILES | GROUP
Cc1ccc(-n2[nH]c(C)c(/C=N/NC(=O)c3cccc([N+](=O)[O-])c3)c2=O)cc1C | Condition not met
CCN(CC)c1ccc(NC(=O)c2ccc(Cl)nc2)cc1 | Condition met
O=C(CCC(=O)c1cccs1)NC1CCCCCC1 | Condition not met
CCCC(=O)Nc1nc2ccc(NC(=O)c3cccnc3)cc2s1 | Condition not met
CCCC1=Nc2cc(C(=O)NCc3ccco3)ccc2Sc2ccccc21 | Condition met

---

Assay: APP 5'UTR translational reporter suppression – APP 5'UTR luciferase, SH-SY5Y cells, primary screen (AID 1285)
Settings: SH-SY5Y APP 5'UTR-luciferase reporter, luminescence; at 2 µM; active compounds read high
Among all 190,000 compounds or so, about 1,600 (0.84%) were called active. The sample as a whole holds a higher share of actives than the screen did.

COMPOUND | inhibition, %
CC(C)(C)NC(=O)NC(=O)COC(=O)C1(C)CC1(Cl)Cl (stereo not given) | 12.7
Cc1ccccc1C1CC(c2cccs2)=NN1S(C)(=O)=O (stereo not given) | 17.8
O=C(N/N=C/c1c(Cl)[nH]c2ccccc12)c1sc2ccccc2c1Cl | -4.8
O=C(COc1ccc(NC(=O)c2ccccc2[N+](=O)[O-])cc1)c1ccc(F)cc1 | -3.2
Cc1nn(C)cc1/C=N/NC(=O)c1sc2ccccc2c1Cl | 55.6
O=C(Nc1ccon1)c1sc2ccccc2c1Cl | -68.6
COc1ccc(NC(=O)/C(Cl)=C(/Cl)S(=O)Cc2ccc(C)cc2)cn1 (stereo not given) | 91.7
CC(=O)Nc1ccc(OCC(=O)NCc2ccc(C)cc2)cc1 | -8.4
COc1cccc(CC(=O)N2CCCC(CCC(=O)N3CCN(c4ccccn4)CC3)C2)c1 (stereo not given) | -8.5
COc1cc(/C=N\NC(=O)c2nonc2N)c(OC)cc1Br | 1

---

Experiment: APP 5'UTR translational reporter suppression – APP 5'UTR luciferase, SH-SY5Y cells, primary screen (AID 1285)
Settings: SH-SY5Y APP 5'UTR-luciferase reporter, luminescence; at 2 µM; active compounds read high
Among all 190,000 compounds or so, about 1,600 (0.84%) were called active. What follows is part of a selection rich in actives, with near analogues and random picks from the rest.
Please mark yes (1) if the recorded inhibition is equal to or greater than 10%, and no (0) if it falls below.

COMPOUND | GROUP
O=C(Cc1cccs1)N(CC1CCCO1)C1(C(=O)NC2CCCCC2)CCCCC1 (stereo not given) | no (0)
COc1ccc(NC(=O)c2nc(-n3nc(C)cc3C)ccc2Cl)cc1Cl | yes (1)
CCc1ccc(CNC(=O)C2CC(=O)N(CCc3ccc(C)cc3)C2)cc1 (stereo not given) | yes (1)
CCOc1ccc(C2C(C(=O)NC)=C(C)Nc3nc4ccccc4n32)cc1OC (stereo not given) | yes (1)
Cc1cc(C)n(-c2cc(Oc3ccccc3)ncn2)n1 | no (0)

// data source = PubChem BioAssay AID1285
